- Tested on: MALME-3M melanoma
- EXPERIMENTAL DETAILS: NCI tumour cell line growth inhibition, 48 h
Item-by-item account of GI50

Solved cases below.
# input compound: CC(=O)Nc1c(I)c(C(=O)O)c(I)c(N(C)C(C)=O)c1I ; wanted: its GI50
> 100 µM

# input compound: CCOC(=O)C1=C(C)NC(C)=C(C(=O)OCC)C1c1cc(Br)c(O)c(OC)c1 ; wanted: its GI50
10.6 µM

# input compound: c1cc2ccc3cc2cc1CNCCOCCNCc1ccc2ccc(cc2c1)CNCCOCCNC3 ; wanted: its GI50
> 100 µM

New cases:
# input compound: C=C1C(=O)O[C@H]2[C@H]1CC/C(COC(=O)c1cccc3ccccc13)=C\CC[C@@]1(C)O[C@@H]21 ; wanted: its GI50
1.76 µM

# input compound: O=C1NC(=O)C(N2CCc3ccccc32)=C1c1ccc(Cl)cc1 ; wanted: its GI50
> 25 µM

# input compound: Cc1ccc(-n2nnc3c(sc4ccccc43)c2=O)cc1 ; wanted: its GI50
8.4 µM
